test: yeast display, Sf9 membrane polyspecificity reagent, FACS + sequencing; frameworks hold sequencing errors

sequence_data: QVQLVESWGGLVQAGGSLRLSCAASGFIFQTNVMGWYRQAPGKERELVAAISSGDSTYYADSVKGRFTISRDNAKNTVYLQMNSLKPEDTAVYYCAADVLGTTTTVGGFNYWGQGTQVTVSS
polyreactivity (PSR sort gate): low polyreactivity
--
sequence_data: QVQLVESGGGLVQAGGSLRLSCAASGLTFAYNTMGWYRQAPGKEREFVASISSSGGNTYYADSVKGRFTISRDNAKNTVYLQMNSLKPEDTAVYYCAAKKKYHYVASYKRFEYWGQVTQVTVSS
polyreactivity (PSR sort gate): low polyreactivity
--
sequence_data: QVQLVESGGGLVQAGGSLRLSCAASGRIFYVNTMGWYRPAPGKERELVATITWGGDSTYYADSVKGRFTISRDNAKNTVYLQMNSLKPEDTAVYYCAADHHDIRLNTRRNDYRGQGTQVTVSS
polyreactivity (PSR sort gate): low polyreactivity
--
sequence_data: QVQLVESGGGLVQAGGSLRLSCAASGGTIYLNAMGWYRQAPRKERELVAGITWGGGRTYYADSVKGRFTISRDNAKNTVYLQMNSLKPEDTAVYYCASGAWRGPYSGYYYWGQGTQVTVSS
polyreactivity (PSR sort gate): low polyreactivity
--
sequence_data: QVQLVESGGGLVQAGGSLRLSCAASGRTFFGYAMGWYRQAPGKERELVAAISSGGSTYYADSVKGRFTISRDNAKNTVYLQMNSLKPEDTAVYYCAARSFTTRRSVIRNYWGQGTQVTVSS
polyreactivity (PSR sort gate): high polyreactivity
--
sequence_data: QFQLVESGGGLVQAAGSLRLSCAASGSTFVSNAMGWYRQAPGKDRELVAAITRSGGSTRDADSVKGRLTISRDNAKNTGYLQMNSLKPEDTAVYYCAAPHKYYGLRYYYWGQGTQVTVSS
polyreactivity (PSR sort gate): high polyreactivity
--
sequence_data: QVQLVESGGGLVQAGGSLRLSCAPSGFTFRYYGMGWYRQAPGKERELVAAITRTGGSTYYADSVKGRFTISRDNAKYTVYLQMNSLKPEDTAVYFCGAGGSYAYVYWGQGTQVTVSS
polyreactivity (PSR sort gate): high polyreactivity
--
sequence_data: QVQLVESGGGLVQAGGSLRLSCAASGIIFYRSVMGWYRQAPGKERELVAAITSGGSTNYADSVKGRFTISRDNAKNTVYLQMNSLKPEDTAVYYCAAVPRYRRWKYDYWGQGTQVTVSS
polyreactivity (PSR sort gate): high polyreactivity
--
sequence_data: QVQLVESGGGLVQAGGSLRLSCAASGSILYYNAMGWYRQAPGKERELVAGIRSSGGSTYYADSVKGRFTISRDTAKNTVYLQMNSLKPEDTAVYYCAKRTYWRRGWGFDYWGQGTQVTVSS
polyreactivity (PSR sort gate): high polyreactivity
--
sequence_data: QVQLVESGGGLVQAGGSLRLSCAASGSTFGTNAMGWYRQAPGKERELVARINSSASTTYADSVKGRFTISRDNAKNTVYLQMNSLKPEDTAVYYCNADDRHSRVGHSWQDAQFDYWVQGTQVTVSS
polyreactivity (PSR sort gate): high polyreactivity
--
sequence_data: QVQLVESGGGLVQAGGSLRLSCASSGRIIINYDMGWYRQAPGKEIELVAAITWSTGSTYADSVKGRFTISRDNAKNTVYLQMNSLKPEDTAVYYCAAPWGQTDDRHQGGDYWGQGTQVTVSS
polyreactivity (PSR sort gate): low polyreactivity
--
sequence_data: QVQLVESGGGLVQAGGSLRLSCAASGRTFKYYAMGWYRQAPGKERELVAAISWNGGSTYYADSVKGRFTISRDNAKNTVYLQMNSLKPEDTAVYYCAARYYAAGIGSRYDYWGQGTQVTVSS
polyreactivity (PSR sort gate): high polyreactivity
--
sequence_data: QVQLVESGGGLVQAGGSLRLSCAASGRTFRTYTMGWYRQAPGKERELVAAISRGGSTNYADSVKGRFTISRDNAKNTVYLQMNSLKPEYTAVYYCNAKASFWSPYDDWGQGTQVTVSS
polyreactivity (PSR sort gate): high polyreactivity
--
sequence_data: QVQLVESGGGLVQAGGSLRLSCAASGRTFYSYAMGWYRQAPGTEREFVAAINWSGTSTYADSVKGRFTISRDNAKNTVYLQMNSLKPEDTAVYYCAKTYRTLVRYWGQPFGYWGQGTQVTVSS
polyreactivity (PSR sort gate): high polyreactivity
--
sequence_data: QVQLVESGGGLVQAGGSLRLSCAPSGRTFSRNAMGWYRQAPGKERELVAAISQRGVSTYYADSVKGSFTISRDNAQNSVYLQMNSLKPEDSAVYYCNTRGTYRYDYWGQGTQGTVSS
polyreactivity (PSR sort gate): low polyreactivity
--
sequence_data: QVQLVESGGGLVQAGGSLRLSCAASGRIFFTYAMGWSRQAPGKERELVAAISWSGGGTYYADSVKGRFTISRDNAKNTVYLQMNSLKPEDTAVYYCAADNTILFDYWGQGTQVTVSS
polyreactivity (PSR sort gate): low polyreactivity
--
sequence_data: QVQLVESGGGLVQAGGSLRLSCAASGLIYSYYVMGWNRQAPGKERELVPAINESGGRTYYADSVKGRFTISRDNAKNTVYLEMNSLKPEDTAVYYCAASVLNKIQGYRDYYCGQGTQVTVSS
polyreactivity (PSR sort gate): low polyreactivity
--
sequence_data: QVQLVESGGGLVQAGGSLRLSCAASGRTFYRNAMGWYRQAPGIERELVAVISQRGGRTFYADSVKGRFTISRDNAKNTVYLQMNSLKPEDTAVYYCAAPTQSYAHQGFGYWGQGTQVTVSS
polyreactivity (PSR sort gate): high polyreactivity
--
sequence_data: QVQLVESGGGLVQAGGSLRLSCAASGFIFIQYAMGWYRQAPGKERELVAAISRSGGSTSYADSVKGRFTISRDNAKNTVYLQMNSLKPEDTAVYYCNRYYGSSGHGRPNEKYGYWGQGTQVTVSS
polyreactivity (PSR sort gate): low polyreactivity
--
sequence_data: QVQLVESGGGLVQAGGSLRLSCAASGSIFGYNAMGWYRQAPGKERELVAVITRSDGSTYYADSVKGRFTISRDNAKNTVYLQMNSLKPEDTAVYYCNAETHVYYWGVVIYEYNYWGQGTQVTVSS
polyreactivity (PSR sort gate): low polyreactivity
--
sequence_data: QVQLVESGGGLVQAGGSLRLSCAASGIIFRSNAMGWYRQAPGKERELVAAISRTGRTYYADSVKGRFTISRDNAKNTVNLQMNSLKPEDTAVYYCAVGIVQRDSRYYYWGQGTQVTVSS
polyreactivity (PSR sort gate): high polyreactivity

* * *

test: yeast display, Sf9 membrane polyspecificity reagent, FACS + sequencing; frameworks hold sequencing errors
result_type: polyreactivity (PSR sort gate)

sequence_data: QVQLVESGGGLVQAGGSLRLSCAASGSIFRNNAMGWYIQAPGKERELVASITRRGGSTYYADSVKGRFTISRDNAKNTVYLQMNSLKPEYTAGSYCAATTQHRYTLNYWGQGTQVTVSS
result_type: polyreactivity (PSR sort gate)
result: high polyreactivity
--
sequence_data: QVQIVESGGGLVQAGGSLRLSCAASGSIFASYTMGWYRQAPGKERELGATIRRTGSTYYADSVKGRFTISRDNAKNTVYLQMNSLKPDDTAVYYCAAGLRRKQGLTSGYEYGGQGTQVTVSS
result_type: polyreactivity (PSR sort gate)
result: high polyreactivity

* * *

test: yeast display, Sf9 membrane polyspecificity reagent, FACS + sequencing; frameworks hold sequencing errors
result_type: polyreactivity (PSR sort gate)

sequence_data: QVQLVESGGGLVQAGGSLRLSCAASGFIFPYYAMGWYRQAPGKERELVAAISGSGGSTYYADSVKGRFTISRDNANYTVYLQMNSLKPEDTAVYYCAASARRLNMGYWGQGTQVTVSS
result: high polyreactivity

sequence_data: QVQLVESGGGLVQAGGSLRLSCAASGRTFWYYAMGWYRQAPGTERELVAAITYRGTRTYADSVKGRFTISRDNAKNTVYLQMNSQKPEDTPVYYCAKDVGYRYSGTMDYWGQGTQVTVSS
result: high polyreactivity

sequence_data: QVHLVESGGGLVQAGGSLRLSCAASGITFYRNAMGWYRQPRGKEMELVAAITWNGGRTYYADSVKGRFTISRDNAKNTVYLQMNSLKPEDTAVYYCAADSGSRNLASYRYYSWGQGTQVTVSS
result: low polyreactivity

sequence_data: QVQLVESGGGLVQAGGSLRLSCAASGSTFYSYAMGWYRQAPGKERELVAAITTSGVSTYYADSVKGRFTISRDNAKNTVYLQMNSLKPEDTAVYYCNAYFIYEGGWYYKAQYDYWGQGTQVTVSS
result: low polyreactivity

sequence_data: QVQLVESGGGVVQAGGSLRLSCAASGRIFRYYTMGWYRQAPGKERELVAAITSSGGSTYYADSVKGRFTISRDNAKNTVYLQMNSLKPEDTAVYYCATRSYVFAWEFNYWGQGSQVTVSS
result: high polyreactivity

* * *

test: yeast display, Sf9 membrane polyspecificity reagent, FACS + sequencing; frameworks hold sequencing errors

sequence_data: QVQLVESGGGLVQAGGSLRLSCAASGITFGTNAMGWYRQAPGKERELVAAISGGGGSTYYADSVKGRFTISRDNAKYTVYLQMTCLKPEDTAFYYCAARRFKRSSLSFYVGYYYWGQGTQVTVSS
polyreactivity (PSR sort gate): high polyreactivity

sequence_data: QVQLVESGGGLVQAGGSLRLSCAASGSTFYSYAMGWYRQAPGKERELVASITRGGSTNYADSVKGRFTISRDNAKNTVYLQMNSLKPEDTAVYYCITRGNARMDYWGQGTQVTVSS
polyreactivity (PSR sort gate): high polyreactivity
